Listed compounds paired with reported Nicotine Mass Loss
- measurement.parameters: 60° C., isothermal TGA, API powder
property.label: Nicotine Mass Loss

| compound | reported.value |
| --- | --- |
| CN1CCCC1c1cccnc1.O=C(O)C(O)C(O)C(=O)O (centres unmarked) [Nicotine bitartrate] | 10 µg/day |
| CN1CCC[C@H]1c1cccnc1.O=C(O)c1ccccc1O [Nicotine o-salicylate, nicotine ortho-salicylate] | 178 µg/day |
| CC(C)(C(=O)O)C(=O)O.CC(C)(C(=O)O)C(=O)O.CN1CCCC1c1cccnc1 (centres unmarked) [Nicotine bidimethylmalonate] | 53 µg/day |
| CN1CCCC1c1cccnc1.O=C(O)/C=C/C(=O)O (centres unmarked) [Nicotine monofumarate] | 219 µg/day |
| CN1CCCC1c1cccnc1.O=C(O)c1cccc(O)c1 (centres unmarked) [Nicotine m-salicylate, nicotine meta-salicylate] | 107 µg/day |

====

- measurement.parameters: 50° C., isothermal TGA, API powder
One threshold, 10 µg/day, splits the recorded Nicotine Mass Loss values: lower ones are criterion met, equal or higher ones are criterion not met.

| compound | category.label |
| --- | --- |
| CC(C)(C(=O)O)C(=O)O.CC(C)(C(=O)O)C(=O)O.CN1CCCC1c1cccnc1 (centres unmarked) [Nicotine bidimethylmalonate] | criterion not met |
| CN1CCC[C@H]1c1cccnc1.O=C(O)c1ccccc1O [Nicotine o-salicylate, nicotine ortho-salicylate] | criterion not met |
| CN1CCCC1c1cccnc1.O=C(O)c1cccc(O)c1 (centres unmarked) [Nicotine m-salicylate, nicotine meta-salicylate] | criterion not met |
| CN1CCCC1c1cccnc1.O=C(O)/C=C/C(=O)O (centres unmarked) [Nicotine monofumarate] | criterion not met |
| CN1CCCC1c1cccnc1.O=C(O)C(O)C(O)C(=O)O (centres unmarked) [Nicotine bitartrate] | criterion met |

====

- measurement.parameters: 40° C., isothermal TGA, API powder
Quick reference: Nicotine Mass Loss of the listed items.

| compound | Nicotine Mass Loss |
| --- | --- |
| CC(C)(C(=O)O)C(=O)O.CC(C)(C(=O)O)C(=O)O.CN1CCCC1c1cccnc1 (centres unmarked) [Nicotine bidimethylmalonate] | 4 µg/day |
| CN1CCCC1c1cccnc1.O=C(O)/C=C/C(=O)O (centres unmarked) [Nicotine monofumarate] | 7 µg/day |
| CN1CCCC1c1cccnc1.O=C(O)c1cccc(O)c1 (centres unmarked) [Nicotine m-salicylate, nicotine meta-salicylate] | 5 µg/day |
| CN1CCC[C@H]1c1cccnc1.O=C(O)c1ccccc1O [Nicotine o-salicylate, nicotine ortho-salicylate] | 15 µg/day |
| CN1CCCC1c1cccnc1.O=C(O)C(O)C(O)C(=O)O (centres unmarked) [Nicotine bitartrate] | 1 µg/day |

Data provenance is patent US9724341B2.
